Source: ChEMBL document CHEMBL4007435

Please go through the items and note down their inhibition at 10 µM.
Biological target: Kv1.2 (Rattus norvegicus, UniProt P63142)
Sequence (P63142 whole entry): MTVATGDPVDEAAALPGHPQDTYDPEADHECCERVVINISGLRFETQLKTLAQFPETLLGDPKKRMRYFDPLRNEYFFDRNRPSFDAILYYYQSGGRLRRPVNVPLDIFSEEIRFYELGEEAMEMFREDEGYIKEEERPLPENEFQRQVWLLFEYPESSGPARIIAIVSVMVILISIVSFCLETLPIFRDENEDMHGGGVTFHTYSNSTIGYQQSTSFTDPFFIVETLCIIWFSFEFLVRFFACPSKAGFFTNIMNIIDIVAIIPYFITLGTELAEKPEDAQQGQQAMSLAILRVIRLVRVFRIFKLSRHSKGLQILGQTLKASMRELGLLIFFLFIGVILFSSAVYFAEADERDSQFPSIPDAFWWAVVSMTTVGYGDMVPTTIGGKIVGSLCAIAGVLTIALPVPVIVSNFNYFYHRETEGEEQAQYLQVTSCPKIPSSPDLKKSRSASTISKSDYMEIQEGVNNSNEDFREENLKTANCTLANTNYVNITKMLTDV
Experiment: Inhibition of recombinant rat Kv1.2 expressed in HEK293 cells at 10 uM at -90 mV holding potential by whole cell patch clamp Qpatch method relative to control
Assay type: cell-based
Conditions: HEK293 cells expressing recombinant rat Kv1.2
Give the value in % but do not write % after it.

inhibition at 10 µM lookup needed for `Cc1ccc(C(c2ccc(C)cc2)(c2ccc(C(=O)NCCCCN)[nH]2)c2ccc(C(=O)NCCCCN)[nH]2)cc1.Cl.Cl` , thanks.
3

// repeat for `Cc1ccc(C(c2ccc(C)cc2)(c2ccc(C(=O)NCCN)[nH]2)c2ccc(C(=O)NCCN)[nH]2)cc1.Cl.Cl` and report
1

// repeat for `Cc1ccc(C(c2ccc(C)cc2)(c2ccc(C(=O)NCCCN)[nH]2)c2ccc(C(=O)NCCCN)[nH]2)cc1.Cl.Cl` and report
6
